Tested on: soybean (Glycine max L., var. Pella 86, SOY)
assay.summary: Pre-emerge greenhouse test, crop damage rating
Type: in vivo
Set-up: key: 0 = no damage, 100 = complete death of all plants
cond: Rate 125 g al/ha, 14 days after application, rating scale 0-100
Parameter: SOY crop damage rating. Scope: all listed entries.
# respond with the number and nothing more

Here are 3 molecules together with their reported answers.
[in] Report SOY crop damage rating, nothing else, for this molecule: Nc1ccc(Oc2cc(-n3c(=O)n4n(c3=S)CCCC4)c(F)cc2Cl)nc1
[out] 0

[in] Supply measured SOY crop damage rating of Nn1c(C(F)(F)F)cc(=O)n(-c2cc(Oc3cccc(C(F)(F)F)c3)c(Cl)cc2F)c1=O in your reply.
[out] 50

[in] Answer with the recorded SOY crop damage rating of O=c1n(-c2cc(Oc3ccc([N+](=O)[O-])cn3)c(Cl)cc2F)c(=S)n2n1CCCC2 only.
[out] 0

---
[in] Entry COc1nc(OC)nc(Oc2cc(-n3c(=O)n4n(c3=S)CCCC4)c(F)cc2Cl)n1 needs its SOY crop damage rating filled in; supply it.
[out] 10

[in] Report measured SOY crop damage rating; entry is CSc1cccnc1Oc1cc(-n2c(=O)n3n(c2=S)CCCC3)c(F)cc1Cl
[out] 0

[in] Given the molecule Cc1nsc(Oc2cc(-n3c(=O)n4n(c3=S)CCCC4)c(F)cc2Cl)c1[N+](=O)[O-] , write its reported SOY crop damage rating.
[out] 0

[in] Write down SOY crop damage rating measured for item O=c1n(-c2cc(Oc3nccc(Cl)n3)c(Cl)cc2F)c(=S)n2n1CCCC2
[out] 40

[in] In one line, give reported SOY crop damage rating of the entry COc1cc(Oc2cc(-n3c(=O)n4n(c3=S)CCCC4)c(F)cc2Cl)nc(OC)n1 .
[out] 0

====

Tested on: sicklepod (Cassia obtusifolia, CASOB)
assay.summary: Post-emerge greenhouse herbicide test, phytotoxicity rating
Type: in vivo
cond: Senna obtusifolia, post-emergence, 336 h, rate 500 g ai/ha, 14 days after application, scale 0-100
Listed here are compounds together with their documented pest or weed control at 500 g/ha.
Lab book: enter the figure in %, no units written.

[in] Let me know recorded pest or weed control at 500 g/ha for N#Cc1cccnc1Oc1cc(-n2c(=O)cc(C(F)(F)F)n(N)c2=O)c(F)cc1Cl [Compound 9-9] , thanks.
[out] 100

[in] Identify measured pest or weed control at 500 g/ha associated with Nn1c(C(F)(F)F)cc(=O)n(-c2cc(Oc3ccc(Br)cn3)c(Cl)cc2F)c1=O [Compound 9-2]
[out] 95

[in] Indicate its recorded pest or weed control at 500 g/ha; the compound in question is Nn1c(C(F)(F)F)cc(=O)n(-c2cc(Oc3cc(C(F)(F)F)ccn3)c(Cl)cc2F)c1=O [Compound 9-8]
[out] 30

[in] Indicate its recorded pest or weed control at 500 g/ha; the compound in question is Nn1c(C(F)(F)F)cc(=O)n(-c2cc(Oc3ccc([N+](=O)[O-])cc3C(F)(F)F)c(Cl)cc2F)c1=O [Compound 9-22]
[out] 70

[in] Determine its reported pest or weed control at 500 g/ha: Nn1c(C(F)(F)F)cc(=O)n(-c2cc(Oc3ccccn3)c(Cl)cc2F)c1=O [Compound 9-15]
[out] 100

[in] Answer with the recorded pest or weed control at 500 g/ha of Nn1c(C(F)(F)F)cc(=O)n(-c2cc(Oc3nc(F)c(F)cc3F)c(Cl)cc2F)c1=O [Compound 9-6] only.
[out] 100

Attention now turns to another entry.
[in] Supply pest or weed control at 500 g/ha value. Item: Nn1c(C(F)(F)F)cc(=O)n(-c2cc(Oc3ccc([N+](=O)[O-])cn3)c(Cl)cc2F)c1=O [Compound 9-11]
[out] 80
